- MEASURED ON: UniProt:P28845
- Sequence (P28845 whole entry): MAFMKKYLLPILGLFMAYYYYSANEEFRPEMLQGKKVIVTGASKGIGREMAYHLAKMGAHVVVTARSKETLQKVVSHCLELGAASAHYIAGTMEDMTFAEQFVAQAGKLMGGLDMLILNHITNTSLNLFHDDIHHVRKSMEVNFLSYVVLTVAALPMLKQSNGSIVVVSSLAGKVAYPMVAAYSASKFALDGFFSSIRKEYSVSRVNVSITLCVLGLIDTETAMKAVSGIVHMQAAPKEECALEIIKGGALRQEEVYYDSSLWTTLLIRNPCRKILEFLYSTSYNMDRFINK
- TEST: 11β-HSD1 HEK assay (whole HEK 293 cells stably transfected with HSD11B1, SPA)
- Format: cell-based
- Design: expressed in transfected cells; host or cells: HEK 293
- CONDITION INFO: HEK293, read-out: % INHIBITION of Human 11 β-HSD1 at 10 μM (HEK)
- Experimental: 11β-HSD1 HEK Assay Protocol (Cell Based Assay) 11β-HSD1 activity is measured in whole HEK 293 cells stably transfected with the HSD11B1 gene. Cells are incubated in 96-well microplates in the presence of tritiated substrate. Enzyme activity is determined by measuring the amount of tritated product by scintillation proximity assay (SPA). Assay plates contain internal high and low controls to allow calculation of percentage inhibition. 2. […]
Assign inhibition at 10 µM to each entry below.

{"columns": ["MOLECULE", "MEASURED ON", "MEASUREMENT TYPE", "VALUE MEASURED"],
 "data": [
  ["Cc1ccc(SCC(=O)C23CC4CC(CC(C4)C2)C3)cc1 [compound 1537]", "UniProt:P28845", "inhibition at 10 µM", "> 60%"],
  ["O=C(NCc1ccco1)C12CC3CC(CC(C3)C1)C2 [compound 1579]", "UniProt:P28845", "inhibition at 10 µM", "> 60%"],
  ["CN(Cc1cccs1)C(=O)[C@@H]1CC2C=CC1C2 (some centres unmarked) [compound 1710]", "UniProt:P28845", "inhibition at 10 µM", "> 60%"],
  ["O=S(=O)(NC12CC3CC(CC(C3)C1)C2)c1cc(Cl)ccc1Cl [compound 1342]", "UniProt:P28845", "inhibition at 10 µM", "20 to 60%"],
  ["Cn1cnc(CNC(=O)C23CC4CC(CC(C4)C2)C3)c1 [compound 1577]", "UniProt:P28845", "inhibition at 10 µM", "> 60%"],
  ["O=C(NCCc1cccs1)C1(c2ccc(Cl)cc2)CCCC1 [compound 1651]", "UniProt:P28845", "inhibition at 10 µM", "< 20%"]
]}

I would be grateful if you could provide inhibition at 10 µM for each of the following entries.
1. O=C(NCCN1CCCCC1)C12CC3CC(CC(C3)C1)C2 [compound 1598]
2. O=C(NCCc1cccs1)C12CC3CC(CC(O)(C3)C1)C2 [compound 1676]
3. O=C(CSCc1ccc(Cl)cc1)C12CC3CC(CC(C3)C1)C2 [compound 1621]
4. CC(=O)Nc1ccc(OCC(=O)C23CC4CC(CC(C4)C2)C3)cc1 [compound 1569]

1. > 60%
2. > 60%
3. > 60%
4. > 60%
